The measured values listed here are drawn from the NIST ThermoML archive (doi:10.1021/je900525f).

Recorded speed of sound for the following molecules
details: 313.15 K; 101 kPa; Liquid; Pulse-echo method
Provide only the numeric value, understood in m/s.

1) CCOC(=O)CCl [ethyl chloroethanoate] : 1197.6
2) CCOC(C)=O [ethyl acetate] : 1081.2
3) N#CCc1ccccc1 : 1503.4

Turning to the following molecule.
Exam item: Recorded speed of sound for CCOC(=O)CC#N [ethyl cyanoacetate] , please?
Marked response: 1367.7

###

details: 313.15 K; 101 kPa; Liquid; Capillary tube (Ostwald / Ubbelohde) method
MEASURED_ATTRIBUTE: viscosity (mPa·s)
Numeric only. Scale: mPa·s

Below, each entry is followed by its recorded viscosity result.
1) CCOC(=O)CC#N [ethyl cyanoacetate] : 1.77
2) CCOC(=O)CCl [ethyl chloroethanoate] : 0.8341
3) N#CCc1ccccc1 : 1.489

Exam item: Recorded viscosity for CCOC(C)=O [ethyl acetate] , please?
Marked response: 0.344
